These data points were gathered from ChEMBL document CHEMBL1127638.

These records show log10 of IC50 for Coagulation factor X (Homo sapiens, UniProt P00742).
All values: log10 IC50 [µM].

A selection of reference data follows.
| Compound | Subject of test | Measured number |
| --- | --- | --- |
| CCOC(=O)C(Cc1ccc2cc(C(=N)N)ccc2c1)c1ccc(O[C@H]2CCNC2)cc1 (stereo not given in full) | Coagulation factor X (Homo sapiens, UniProt P00742) | 0.62 |
| CCOC(=O)C(Cc1ccc(O[C@H]2CCNC2)cc1)c1cc2cc(C(=N)N)ccc2o1 (stereo not given in full) | Coagulation factor X (Homo sapiens, UniProt P00742) | 1.72 |
| CCOC(=O)C(Cc1cc2ccc(C(=N)N)cc2o1)c1ccc(O[C@H]2CCNC2)cc1 (stereo not given in full) | Coagulation factor X (Homo sapiens, UniProt P00742) | 0.23 |
| CC(=N)N1CC[C@H](Oc2ccc(C(Cc3cc4cc(C(=N)N)ccc4o3)C(=O)O)cc2)C1 (stereo not given in full) | Coagulation factor X (Homo sapiens, UniProt P00742) | -0.30 |

Kindly review the next compound as well.
Query for Coagulation factor X (Homo sapiens, UniProt P00742): what log10 of IC50 does the record show for N=C(N)c1ccc2cc(CC(C(=O)O)c3ccc(O[C@H]4CCNC4)cc3)ccc2c1 (stereo not given in full) ?
0.61

---

These records show pIC50 for Prothrombin (Homo sapiens).
Convention used: pIC50 is expressed as -log10 of the molar concentration.

| Molecule | Measured number |
| --- | --- |
| CCOC(=O)C(Cc1cc2ccc(C(=N)N)cc2o1)c1ccc(O[C@H]2CCNC2)cc1 (stereo not given in full) | 4.44 |
| CC(=N)N1CC[C@H](Oc2ccc(C(Cc3cc4cc(C(=N)N)ccc4o3)C(=O)O)cc2)C1 (stereo not given in full) | 4.82 |

Kindly review the next molecule as well.
Entry CCOC(=O)C(Cc1ccc(O[C@H]2CCNC2)cc1)c1cc2cc(C(=N)N)ccc2o1 (stereo not given in full) has what pIC50?
4.70
